Molecular target: Replicative DNA helicase DnaB (Mycobacterium tuberculosis)
Assay: DnaB intein splicing inhibitors, dose response, biochemical, cell-free fluorescence (AID 449749)
Assay type: functional
Activity calls are given as the source filed them.
Mark one answer only. Choices: active, inactive

Query block: Recorded test outcome, item CCc1oc2ccccc2c1C(=O)c1cc(Br)c(O)c(Br)c1 [BENZBROMARONE]
Result block: active

Query block: Now the molecule COc1ccc(CS(=O)(=O)/C(Cl)=C(/Cl)C(=O)Nc2ccc(OC)nc2)cc1
Result block: active

Query block: Please give the result for COc1ccc(CC(=O)O/N=C(\N)Cc2cccc3ccccc23)cc1OC too.
Result block: active

Query block: Same read-out for Cc1cc(-c2ccccc2)nc2cc(C(=O)N(Cc3ccccc3)Cc3ccccc3)nn12 ?
Result block: inactive

Query block: // next record CN1CCN(c2ccc([N+](=O)[O-])c3no[n+]([O-])c23)CC1
Result block: inactive

Query block: Follow-up item: Cc1[nH][nH]c(=O)c1C(c1ccc(-c2ccc(Cl)c(Cl)c2)o1)c1c(C)[nH][nH]c1=O
Result block: active

Query block: Moving on to the next molecule: O=C1C=C(N2CCOCC2)c2ccccc2C1=O
Result block: active

Query block: Please give the result for CCCc1n[nH]c2c1C(c1ccc(OC)c(CSC3=NCCS3)c1)C(C#N)=C(N)O2 (centres undefined) too.
Result block: active

Query block: # repeat for N#CC1=C(N)N(c2ccccc2)C(c2ccccc2)C1(C#N)C#N (centres undefined)
Result block: active

Query block: Same for O=C(Oc1ccc(N2C(=O)C3C4CCC(C4)C3C2=O)cc1)c1ccco1 (centres undefined)
Result block: active

Query block: Record: COC(=O)c1ccc(C(=O)OC)c(-n2c(=O)c3ccccc3c3ccccc3c2=O)c1
Result block: active

Query block: Can you check CSc1nnc(NC(=O)C23CC4CC(CC(C4)C2)C3)s1 next?
Result block: inactive

Query block: // query: CCC(C)Nc1nc(Cl)nc(N(C#N)CN2C(=O)c3ccccc3S2(=O)=O)n1 (centres undefined)
Result block: active

Query block: How about Oc1ccc(/C=N/c2ccc3ncccc3c2)c(O)c1 ?
Result block: active

----------
Give AC50 for every item shown.
Target: Acyl-homoserine lactone acylase PvdQ (Pseudomonas aeruginosa (strain LESB58), UniProt Q9I194)
Assay: P. aeruginosa PvdQ acylase inhibitors, dose response, biochemical, fluorescence, plate reader and imaging, cherry-picks (AID 493231)
The source made the active and inactive calls.

Query block: Give its AC50 value. Item: O=C(/C=C/c1ccc2c(c1)OCCO2)c1ccccc1
Result block: 29.3 µM (active)

Query block: // same read-out, input: C=CCOC(=O)c1ccc(-n2cnc(C)n2)nc1
Result block: 4.58 µM (active)

Query block: And then CCOc1ccc(Nc2ncnc3ccc([N+](=O)[O-])cc23)cc1 , what is it?
Result block: 30.8 µM (active)

Query block: Again, but for O=[N+]([O-])c1ccc(-c2cccnc2)cc1
Result block: 13.1 µM (active)

----------
Assay: HEp-2 cell cytotoxicity, dose response, cytotoxicity control for RSV inhibitor project, HTS (AID 2410)
Assay type: functional
Conditions: human respiratory syncytial virus
Activity calls are given as the source filed them.
Measured property: CC50

Query block: Could you tell me which CC50 is on file for Cc1onc(-c2c(Cl)cccc2Cl)c1C(=O)Nc1nc(C(C)(C)C)cs1 ?
Result block: 17 µM (active)

Query block: Proceed to c1ccc(-c2nn3c(Cn4cnc5ccccc54)nnc3s2)cc1
Result block: 42.6 µM (active)

Query block: // next record COc1ccccc1Nc1ncnc2c1c(C)c(C)n2CCO
Result block: > 50 µM (active)

Query block: Please give the result for COc1cccc(NC(=S)N(CCc2c(C)[nH]c3ccc(C)cc23)Cc2cccs2)c1 too.
Result block: 13.4 µM (active)

Query block: Subsequent entry: O=S(=O)(c1ccc2c(c1)OCCO2)N1CCC(c2nc(O)c3nnn(Cc4ccc(F)cc4)c3n2)CC1
Result block: 37.6 µM (active)

----------
Please go through the items and note down their IC50.
Target: Leucine aminopeptidase (Plasmodium falciparum 3D7, UniProt Q8IL11)
Sequence (Q8IL11 whole entry): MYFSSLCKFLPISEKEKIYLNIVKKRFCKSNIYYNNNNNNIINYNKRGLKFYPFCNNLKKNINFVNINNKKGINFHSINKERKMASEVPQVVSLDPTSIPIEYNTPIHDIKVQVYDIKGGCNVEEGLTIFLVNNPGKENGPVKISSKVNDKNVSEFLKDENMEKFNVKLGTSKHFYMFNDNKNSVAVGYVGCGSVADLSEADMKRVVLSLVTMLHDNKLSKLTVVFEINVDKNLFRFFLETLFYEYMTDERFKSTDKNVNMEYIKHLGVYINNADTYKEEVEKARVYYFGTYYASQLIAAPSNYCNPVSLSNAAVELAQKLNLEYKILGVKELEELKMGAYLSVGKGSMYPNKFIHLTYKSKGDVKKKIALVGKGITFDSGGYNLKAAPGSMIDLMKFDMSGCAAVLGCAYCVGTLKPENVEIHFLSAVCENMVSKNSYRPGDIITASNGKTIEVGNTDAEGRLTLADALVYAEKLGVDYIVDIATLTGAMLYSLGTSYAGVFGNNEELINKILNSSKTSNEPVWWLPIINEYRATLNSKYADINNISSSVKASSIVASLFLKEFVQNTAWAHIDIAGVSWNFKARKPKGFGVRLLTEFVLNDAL
Experiment: P. falciparum M17LAP inhibitors, primary screen, biochemical, fluorogenic H-Leu-NHMec substrate, 1536-well (AID 1619)
Assay type: functional
Activity calls are given as the source filed them.

Query block: Given COc1ccc2c(c1)c(C(=O)N/N=C/c1ccc(O)c(O)c1)c(C)n2C , state its recorded IC50.
Result block: 29.7 µM (active)

Query block: Another: CCc1oc2ccccc2c1C(=O)c1cc(Br)c(O)c(Br)c1
Result block: 81.9 µM (active)

Query block: Next molecule: Sc1n[nH]c(-c2cccc(Cl)c2)n1
Result block: 3.56 µM (active)

Query block: Same lookup for Cc1nc(-c2ccc(O)c(O)c2)cs1 , please.
Result block: 25.1 µM (active)

----------
Provide the recorded EC50 for the entries that follow.
Molecular target: Streptokinase A (Streptococcus pyogenes serotype M1, UniProt P10520)
Sequence (P10520 whole entry): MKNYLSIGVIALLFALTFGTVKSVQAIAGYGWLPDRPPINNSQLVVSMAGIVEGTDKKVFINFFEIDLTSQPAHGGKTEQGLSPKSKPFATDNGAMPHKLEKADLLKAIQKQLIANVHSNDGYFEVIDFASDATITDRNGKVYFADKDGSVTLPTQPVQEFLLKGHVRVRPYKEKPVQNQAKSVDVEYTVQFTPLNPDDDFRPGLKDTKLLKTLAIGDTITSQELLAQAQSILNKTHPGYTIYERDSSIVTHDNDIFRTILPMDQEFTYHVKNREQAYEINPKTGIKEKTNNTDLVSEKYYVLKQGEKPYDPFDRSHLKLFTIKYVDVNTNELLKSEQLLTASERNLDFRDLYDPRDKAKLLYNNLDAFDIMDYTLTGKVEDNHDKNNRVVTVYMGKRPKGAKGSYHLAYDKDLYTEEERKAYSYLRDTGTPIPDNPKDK
Assay: S. pyogenes streptokinase expression inhibitors, potency, dose response, plasminogen activation absorbance, OD405 (AID 1914);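 also: secreted streptokinase activity via plasminogen activation per viability signal from cell pellet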
Assay type: functional, Streptococcus pyogenes M1 GAS
The source made the active and inactive calls.

Query block: // map Cc1ccccc1Nc1nc(N)nc(CN(C)Cc2ccccc2Cl)n1 to recorded EC50 (system: Streptokinase A (Streptococcus pyogenes serotype M1, UniProt P10520))
Result block: > 150 µM (not active)

Query block: CCn1cnc2sc(C(=O)Oc3cccc(C)c3)c(C)c2c1=O ?
Result block: > 150 µM (not active)

Query block: # repeat for CCN(CC(=O)NCC1CCCO1)S(=O)(=O)c1ccc(Cl)cc1 (configuration not stated)
Result block: > 150 µM (not active)

Query block: What about COc1ccc(CN2C(=O)c3ccccc3C(/C=N\OCc3ccc(C)cc3)C2=O)cc1 (configuration not stated) ?
Result block: > 150 µM (not active)

Query block: // repeat for Cc1nc2c(-c3ccccc3)c(C)nn2c(O)c1Cc1ccccc1 and report
Result block: > 50 µM (not active)

Query block: Now consider FC(F)(F)c1ccccc1/C=N/n1c(S)nnc1C1CCCCC1 and answer again.
Result block: 32.4 µM (inconclusive)

Query block: Input Cc1cccc(NC(=O)c2ccc(S(=O)(=O)N(C)CC3CCCO3)cc2)c1C (configuration not stated)
Result block: > 150 µM (not active)

Query block: Would you kindly repeat that for COc1ccc(NC(=S)N=Nc2c(O)[nH]c3ccccc23)cc1 ?
Result block: > 150 µM (not active)

Query block: Another compound to look at: CCOC(=O)N1CCN(C(=O)c2ccc3c(=O)n(CCC4=CCCCC4)c(=S)[nH]c3c2)CC1
Result block: 29.8 µM (active)

Query block: Would you kindly repeat that for COc1ccc(NC(=O)C(=O)NNC(=O)C(C)Oc2ccc(Cl)cc2Cl)cc1 (configuration not stated) ?
Result block: > 150 µM (not active)

Query block: What would you report for CC1(C)Cc2nc3sc4c(OCc5ccccc5)ncnc4c3cc2CO1 ?
Result block: > 150 µM (not active)

Query block: Try CC1(C)Cc2c(sc(NC(=O)c3ccc(C(=O)c4ccccc4)cc3)c2C(N)=O)C(C)(C)N1 next.
Result block: > 150 µM (not active)

Query block: Here is the next compound: CC(Sc1nc2cc([N+](=O)[O-])ccc2n1-c1cccc(C(F)(F)F)c1)C(=O)NC(N)=O (configuration not stated)
Result block: > 150 µM (not active)

Query block: Next up: CCC[N+]1(CC#CC2(O)CCCCC2)CCOCC1
Result block: > 150 µM (not active)

Query block: Similarly, CCc1oc2ccccc2c1C(=O)c1cc(Br)c(O)c(Br)c1 ?
Result block: 17.2 µM (inconclusive)

Query block: What do you have for CCCCCCC(=O)NN/C=C1\C(=O)NC(=S)N(C(C)CC)C1=O (configuration not stated) ?
Result block: > 150 µM (not active)

Query block: What about this compound? Cc1ccccc1Nc1c(-c2ccccn2)nc2c(C)cccn12
Result block: > 150 µM (not active)
